Test: yeast display, Sf9 membrane polyspecificity reagent, FACS + sequencing; frameworks hold sequencing errors
measured_attribute: polyreactivity (PSR sort gate)

QVQLQERGGGLVQAGASLRQSCAASGTIFTARFMGWYRQAPGKERELVATITDGGNTNDADSVKGRFTSSRDNAKITVYLQMNSLKPEYAAVYYCAAGEVDNDTLLYWGQGSQVTVSS	low polyreactivity
QVQLVESGGGLVQAGGSLRLSCAASGSTFYIYVMGWYRQAPGKERELVARISSSGGSTYYADSVKGRFTISRDNAKNTVYLQMNSLKPEDTAVYYCNVDYGAWYDYWGQGTQVTVSS	low polyreactivity

---

Assay: yeast display, Sf9 membrane polyspecificity reagent, FACS + sequencing; frameworks hold sequencing errors
measured_attribute: polyreactivity (PSR sort gate)

As a guide, the following entries are already answered.
QVQLVESGGGLVQAGGSLRLSSAASGSIFRRYALGWYRQEPGKESELVAAISRSAGSTYYADSVKGRFTISRDNAKNTVYLQMNSLKPEETAVYYCKTDPSRSPGDVVSASVIKRDYWGQGTQVTVSS	low polyreactivity
QVQLVESGGGLVQAGGSLRLTCAASGLTFSYNAMGWYRQAPGKERELVAAITVSGGRTYYADSVKGRFTISRDNAKNTVYLQMNSLKPEDTAVYYCNADYDEGYYGYLRYDYDYWGQGTQVTVSS	high polyreactivity
QVQLVESGGGLVQAGGSLRLSCAASGRIFSSYAMGWYRQAPGKERELVAAISSRGGSTYYADSVKGRFTISRDNAKNTVYLQMNSLKPEDTAVYYCARVKYSGVVYKYDYWGQGTQVTVSS	high polyreactivity
QVQLVESGGGLVQAGGTLRLSCAASGFIFTRYAMGWYSQAPGKERELVAAIKLSGTSTYYADSVKGRFTISRDNAKYTVYLQMNSLKPEDSAVYYCAATSSYIYPYGYWGQGTQVTVSS	high polyreactivity

We next turn to a different sequence, shown below.
[Q] Can you look up the measured polyreactivity (PSR sort gate) of LVQHVESGGGLVKAGGSLRLICAASGRTFLRNAMGWYRQAPGKERELVATITRGGSTYYADSVKGRFTISRDNAKNTVYLEKTSLKPEDTAVYYCSKDFSGGFRRPDYGYWGQGPQVTVSS for me?
[A] low polyreactivity

---

Assay: yeast display, Sf9 membrane polyspecificity reagent, FACS + sequencing; frameworks hold sequencing errors
measured_attribute: polyreactivity (PSR sort gate)

QVQHVESGGGLVHAGGRLRLRCAASGSTFVTNVMGWYSQEPGKEMELVAAISYSGGNTYYEDSEKGRFTISRDNAQNSVYLQMNSLKQEDTAVYYCAAAYKPFKKMGYWGQGTQVTVSS	high polyreactivity
QVQLVESGGGLVQAGGSLRLSCAASGSTLATYTMGWYRQAPGKERELVAAISFGGSTYYADSVKGRFTISRDNAKNTVYLQMNSLKPEDTAVYYCAVYGDSYWGAYYYSDGYWGQGSQVTVSS	low polyreactivity
QVQLVESGGGLVQAGGSLRLSCAASGFIFDLYAMGWYRQAPGKERELVAVISYDGGSTYYADSVKGRFTISRDNAKNTVYLQMNSLNPEDTAVYYCNTYAGLVSPSDLYDYWGQGTQVTVSS	low polyreactivity
QVQLVESGGGLVQAGGSLRLSCAASGIIFYYYAMGWYRQAPGKESELVADITYSGGSTYYADSVKGRFTISRDKAKNTVYLQMNSLKPEDTAVYYCAARVTVSHWPYYYDSSDYGGQGTQVTVSS	low polyreactivity
QVQLVESGGGLVQAGGSLRLSCAASGRIFVGYYTMGWYRQAPGKERELVASITWGGGRTYYADSVKGRFTISRDNAKNTVYLQMNSLKPEDTAVYYCAAGYPANYYYLGQGTQVTVSS	high polyreactivity
QVQLVESGGGLVQAGGSLRLSCAASGFIFYYNTMGWYRQATGKESELVDSITWSGDTTYYADSVKGRFTISRDNAKKTVYLQMNSLKPEDTAVYYCAAVHYYPYRRYDYWGQGTQVTVSS	low polyreactivity
QVQLVESGGGLVQAGGSLRLSCAASGSTFVINAMGWYRQAPGKERELVADIDYRGGSTNYADSVKGRFTISRDNAKNTVYLLMNSLKPEDTAVYYCNKRYVIRRRGYDYWGQGTQVTVSS	low polyreactivity
QVQLVESGGGLVQAGGSLRLSCAASGSIFRWYAMGWYRQAPGKERELVAAISTSGGNTYYADSVKGRFTISRDIAKITVYLQMKSLKPEDTAVYYCNALWYRSLSYRYDYWGQGTQVTVSS	high polyreactivity
QVQLVESGGGLVQAGGSLRLSCAASGLIFVGNAMGWYRQAPGKERELVAAISASTDNTYYADSVKGRFTISRDNAKNTVYLQMISLKPEDTAVYYCNAEQSRNSGKHDYWGQGTQVTVSS	low polyreactivity
QVQLVESGGGLVQAGGSLRLSCAASGSTFGQYAMGWYRQAPGKERELVAAISTSGGSTYYADSVKGRFTISRDNAKNTVYLQMNSLKPEDTAVYYCAVDRLPSYPTGFDYWGQGTQVTVSS	high polyreactivity

[Q] Can you look up the measured polyreactivity (PSR sort gate) of QVQLVESGGGLVQAGGSLRLSCAASGFTFDSYAMGWYRQAPGKERELVAAITSDGSTYYADSVKGRFTISRDNAKNTVYLQMNSLKPEDTAVYYCAADGRYFRAVFRLYDYWGQGTQVTVSS for me?
[A] low polyreactivity

---

Test: yeast display, Sf9 membrane polyspecificity reagent, FACS + sequencing; frameworks hold sequencing errors
measured_attribute: polyreactivity (PSR sort gate)

As a guide, the following entries are already answered.
QVQLVESGGGLVQAGGSLRLSCAASGRTFVWNAMGWYRQAPGTERELVAAITSGGSTNYADSVKGRFTISRDNAKNTVYLQMNSLIPEDTAVYYCGAVWQYSPRMDYWGQGTQVTVSS	low polyreactivity
QVQLVESGGGLVQAGRSLRLSCAASGFIFWRYAMGWYRQAPGKERELVAAISSGRNTKYADSVKGRFTISRDNAKTTVYLQMNSLKPEDTAVYYCAVLGKYLWSATNRFPGSYDSWGHGTQVTVSS	high polyreactivity
QVQLVESGGGLVQAGGSLRLSCAASGSTFGRKAMAWYRQAPGKEMELVAVISKSGGSTYYADTVKGRFTISRDNAKNTVYLQMNSLKPEDTAVYYCAASLKYRRRMGYWGQGTQVTVSS	high polyreactivity
QVQLVESGGGLVQAGGSLRLSCAASGGTFLNYAMGWYRQAPGKECELVAVITNGDSTYYADSVKGRFTISRDNAKNTVYLQMNSLKPEDTAVYYCNADDWGQYNIWYDYWGQGTQVTVSS	low polyreactivity
QVQLVEAGGGLVQAGGSLRLSCAAYGRTFYTYAMGWYRQAPGKEREFVAAITWSGGSTYYADSVKGRFTISRDNAKNTVYLQMNSLKPEDPAVYYCAAGSRFRYSPGQSYEYGYWGQGTQVTVSS	low polyreactivity

[Q] Can you look up the measured polyreactivity (PSR sort gate) of QVQLVESGGGLVQAGGSLRLSCAASGSIFPAYAMGWYRQAPGKERELVAAITRGGRTNYADSVKGRFTISRDNAKNSVYLQMNSLKPEDTAVYYCAKAVQGKYGYWGQGTQVTVSS for me?
[A] high polyreactivity

[Q] Here is the next sequence: QVQLVESGGGLVQAGGSLRLSCAASGSTFWTNAMGWNRQAPGKERELVATITYSTGTYADSVKGRFTISRDNAKNTVYLQMNSLKPEDTAVYYCAATGVPGWVGFDYWGQGTQVSVSS
[A] low polyreactivity

[Q] Here is the next sequence: QVQLVESGGGLVQAGGSLRLSCAASGLTFLWYAMGWYRQAPGKERELVAAITSGGRTKYADSVKGRFTISRDNAKNTVYLQMNSLKPEDTAVYYCAAYTQWWGYDYWGQGTQVTVSS
[A] high polyreactivity

[Q] Here is the next sequence: QVQLVESGGGLVQAGGSLRLSCAASGRTFFDHALGWYRPAPGKERELVAAITSVGSTYYADSVKGRFTISRDNAKNTVYLQMNSLKPEDTAVYYCAAHRHIHYTDARMDYWGQGTQVTVSS
[A] low polyreactivity

[Q] Here is the next sequence: QVQLVESGGGIDQAGGSLRLSCAASGGTFFSNAMGWYRQAPGKERELVAGITSGGRTYYADSVKGRFTISRDNAKNTVYLQMNSLKPEDTAVDYCATRSRRTYYYYGAEGYWGQGTQVTVSS
[A] high polyreactivity

---

Assay: yeast display, Sf9 membrane polyspecificity reagent, FACS + sequencing; frameworks hold sequencing errors
measured_attribute: polyreactivity (PSR sort gate)

As a guide, the following entries are already answered.
QVQLVESGGGLVQAGGSLRLSCAASGRTFTYYAMGWSRQAPGKERECVSAISSTGTSTYYADSVKGRFTISRDNAKNTVYLQMNSLKPEDTAVYYCNARVATYRLHSKFYYWGQGTQVTVSS	high polyreactivity
QVQLVESAGGLVQAGGSLRLICAASVFTFYYYTMGWYRPAPGKERELVAGISGTGGSTYYADSVKGRFTISRDNAKNTVYLQMNSLKPEDTAVYYCAAGPWYWGQGTQVTVSS	low polyreactivity
QVQLVESGGGLVQAGCSLRLSCAATGCSFKYNTMGWYRQAPGKERELVAAITSGGGSTYYADSVKGRFTISRDNAKNTVYLPMNRLKPEDTAVYYCAAYRRNTYWGQGTQVTVSA	high polyreactivity
QVQLVESGGGLVQAGGSLRLSCAASGYTFTGYAMGWYRQAPGKERELVAAISWNGGSTFYADSVKGRFTISRDNAKNTVYLQMNSLKPEDTAVYYCATPRKLAYSPKLDYWGQGTQVTVSS	low polyreactivity
QVQLVESGGGLVQAGGSLRLSCAASGYIFDNNAMGWYRQAPGKERELVAAINWSGGSTYYADSVKGRFTISRDNAKNTVYLQMNSLKPEDTAVYYCNKLIYGIYYPERYAYDYWGQGTQVTVSS	low polyreactivity
QVQLVESGGGLVQAGGSLRLSCAASGRIFGDYGMGWYRQAPGKERELVAAITDRGGTTYYADSVKGRFTISRDNAKNTVFLQMNSLKPEDTAVYYCNARQSDIFDYDYWGKGTQVTVSS	low polyreactivity
QFQLVESGGGLVQAGGSLRLSCAASGLIFYFYAMGWYRQAPGKEREFVAAISSGGDTYYADSVKGRFTISRDNAKNTVYLQMNSLKPEDNAVYYCAARRYRRGRSDYWGQGTQVTVSS	high polyreactivity
QVQLVESGGGLVQSGRSLRLICAASGSTSTQYAMGWYRQAPGKERELVAGITQSGGSTYYADSVKGRFTISRDNAKNTVYLQMNSLKPEDTAVYYCAAPPGYTGRYEYYYWGQGTQVTVSS	high polyreactivity

We next turn to a different sequence, shown below.
[Q] Can you look up the measured polyreactivity (PSR sort gate) of QVQHVESGGGLVQAGGSLRLSCAASGSIFPLNAMGWSRQAPGQVSELVASISTGSSTYYADSVKGRFTISRDNAKNTVYLQMISLKPEDTAVYFCAVDRVLFSDFNRGYEYNYWGQGTQVTVSS for me?
[A] low polyreactivity
